These data points were gathered from paper PMC4793208.

TARGET ENTITY: S. pombe Dcp1/2 (Schizosaccharomyces pombe)
Sequence (O13828 1-243 limits assumed): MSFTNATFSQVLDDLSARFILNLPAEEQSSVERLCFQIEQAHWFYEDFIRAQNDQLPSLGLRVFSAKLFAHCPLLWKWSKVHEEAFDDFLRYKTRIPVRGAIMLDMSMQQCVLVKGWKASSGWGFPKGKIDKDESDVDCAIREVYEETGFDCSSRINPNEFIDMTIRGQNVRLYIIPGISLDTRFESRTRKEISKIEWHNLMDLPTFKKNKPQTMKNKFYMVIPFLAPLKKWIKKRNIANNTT
Sequence (Q9P805 whole entry partner): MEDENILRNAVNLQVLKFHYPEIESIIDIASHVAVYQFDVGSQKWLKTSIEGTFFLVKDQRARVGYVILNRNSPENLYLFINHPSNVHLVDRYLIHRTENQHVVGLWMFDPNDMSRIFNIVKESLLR
Format: biochemical
METRIC: inhibitory properties towards Dcp1/2 decapping (in words)

SMILES INPUT	TARGET ENTITY	READING
CO[C@H]1[C@@H](O)[C@H]([n+]2cn(C)c3c(=O)[nH]c(N)nc32)O[C@@H]1COP(=O)([O-])OP(=O)(O)OP(=O)(O)OC[C@H]1O[C@@H](n2cnc3c(=O)[nH]c(N)nc32)[C@H](O)[C@@H]1O	S. pombe Dcp1/2 (Schizosaccharomyces pombe)	poor Dcp1/2 inhibitors
Nc1nc2c(ncn2[C@@H]2O[C@H](COP(=O)(O)OP(=O)(O)OP(=O)(O)O)[C@@H](O)[C@H]2O)c(=O)[nH]1	S. pombe Dcp1/2 (Schizosaccharomyces pombe)	poor Dcp1/2 inhibitors
Nc1ncnc2c1ncn2[C@@H]1O[C@H](COP(=O)(O)OP(=O)(O)OP(=O)(O)O)[C@@H](O)[C@H]1O	S. pombe Dcp1/2 (Schizosaccharomyces pombe)	poor Dcp1/2 inhibitors
